# melting point per record follows

> print(dat)
                                   molecule         result
1          CCOC(=O)c1cc(-c2ccc(Cl)cc2)cnc1C          71 °C
2  Cc1sc2c(c1C)C(c1ccc(Cl)cc1)=NCc1nnc(C)n1-2       > 250 °C
3  CC(C)(C)NC(=O)c1nn(-c2ccc(Cl)cc2F)c2c1C1CCC2C1 (stereo not given)  148 to 152 °C

Retrieve melting point measured for CCC(C(C)=CC(CNC(=O)Cc1n[nH]c(=O)c2ncccc12)=NO)[N+](=O)[O-] (stereo not given) and print it.
143 to 145 °C

Using the record for CC(C)(C)NC(=O)CN1C(=O)C(N)CC(c2ccccc2F)c2ccccc21 (stereo not given) , state its measured melting point.
190 to 195 °C

Check the records and state melting point for NS(=O)(=O)c1ccc(F)c(F)c1
89 to 91 °C

# return recorded melting point for input N#Cc1ncn2c(C(F)(F)F)cc(-c3ccc(Cl)cc3)nc12
205 °C

* * *

Parameter: melting point. Scope: all listed entries.

> print(dat)
                                   compound  measurementlabel         result
1              O=C(O)CCc1cnn2c(=O)[nH]cnc12     melting point         277 °C
2  FC(F)(F)c1cccc(C2=CCN(CCc3ccc4[nH]ccc4c3)CC2)c1     melting point  122 to 123 °C

Report melting point, nothing else, for this compound: CCOC(=O)C(=CNc1ccc(F)cc1)C(=O)c1ccc(Cl)cc1Cl
108 to 111 °C

Output measured melting point for this item: COCCOc1ccc(CCCOC(=O)NS(=O)(=O)NC2CCC(C)CC2)c(Oc2ncc(C(F)(F)F)cc2Cl)c1 (stereo not drawn)
122 °C

Supply recorded melting point for C#CCN1C(=O)C(C)(C)NC(C)(C)C1=O here.
77 to 80 °C

Supply reported melting point belonging to this compound: Cc1ccc(NC(=O)C(C)(C)C)c(-c2cncc(Br)n2)c1
74 to 76 °C

Return the recorded melting point value; entry: O=C(CCCCl)N(c1ccccc1)c1ccccc1
78 to 79 °C

Assign melting point to the following record: COc1nc(OC)c(SC)c(OC)n1
90.5 to 91 °C

Supply reported melting point belonging to this compound: CC(=O)c1ccc(NC(=O)c2ccc(C=O)cc2)cc1
174 °C

In one line, give reported melting point of the entry O=C1NC(=Cc2ccccc2)C(NCc2ccccc2)=C1[N+](=O)[O-] .
218 °C

* * *

Each entry below lists one item and its recorded melting point value.

> print(dat)
                                   compound  measurementlabel         result
1     COc1ccc(Nc2nc(=O)cc(N)n2-c2ccccc2)cc1     melting point  213 to 216 °C
2   C[C@@H]1CCNC[C@@H]1N(C)c1nccc2[nH]ccc12     melting point         127 °C
3  CC1=NC(NC(=O)CCc2ccc(Cl)cc2Cl)C(=O)N(C)c2ccccc21 (stereo not given)     melting point  194 to 195 °C
4  Cc1ccc(C(CC(=O)O)C(=O)O)s1 (stereo not given)     melting point  186 to 188 °C

Now consider the entry below.
Assign melting point to the following record: OCc1conc1-c1ccc(F)c(Cl)c1
87 to 88 °C
